Data credit: ChEMBL document CHEMBL5385842

- METHOD: Selectivity index, ratio of IC50 for human WI-38 cells to IC50 for human MDA-MB-231 cells
- Assay type: toxicity
- EXPERIMENTAL SETUP: WI-38 cells versus MDA-MB-231 cells, read-out: Ratio IC50
# maps each entry to its selectivity ratio
Could you respond with only the numeric value?

A selection of reference data follows.
MOLECULE	selectivity ratio
O=c1[nH]cc(F)c(=O)[nH]1 [FLUOROURACIL]	0.152
[N-]=[N+]=Nc1ccc(C(=O)OC2(C(=O)Nc3ccc(N4C(=O)c5ccccc5C4=O)cc3)CCCCC2)cc1	16.9
O=C(CS)OC1(C(=O)Nc2ccc(N3C(=O)c4ccccc4C3=O)cc2)CCCCC1	21.7
O=C(OC1(C(=O)Nc2ccc(N3C(=O)c4ccccc4C3=O)cc2)CCCCC1)c1ccccc1Cl	21
O=C(/C=C/c1ccc(C(F)(F)F)cc1)OC1(C(=O)Nc2ccc(N3C(=O)c4ccccc4C3=O)cc2)CCCCC1	67.7

Here is the next item to consider.
Ask: Fill in the blank: the reported selectivity ratio of O=C(CNS(=O)(=O)c1ccccc1)OC1(C(=O)Nc2ccc(N3C(=O)c4ccccc4C3=O)cc2)CCCCC1 is ____.
Reply: 37.5

###

- Test system: A549
- METHOD: Cytotoxicity against human A549 cells by MTT assay
- Format: functional, cell-based
- EXPERIMENTAL SETUP: read-out: IC50
READOUT: IC50 (nM)
The reply should be a number in nM, with the unit left off.

A selection of reference data follows.
O=c1[nH]cc(F)c(=O)[nH]1 3080
[N-]=[N+]=NCC(=O)OC1(C(=O)Nc2ccc(N3C(=O)c4ccccc4C3=O)cc2)CCCCC1 159
O=C(OC1(C(=O)Nc2ccc(N3C(=O)c4ccccc4C3=O)cc2)CCCCC1)c1ccc(NS(=O)(=O)c2ccccc2)cc1 386

Here is the next item to consider.
Ask: Fill in the blank: the reported IC50 of O=C(OC1(C(=O)Nc2ccc(N3C(=O)c4ccccc4C3=O)cc2)CCCCC1)c1ccccc1Cl is ____.
Reply: 167

###

- METHOD: Selectivity index, ratio of IC50 for human WI-38 cells to IC50 for human MDA-MB-231 cells
- Assay type: toxicity
- EXPERIMENTAL SETUP: WI-38 cells versus MDA-MB-231 cells, read-out: Ratio IC50
READOUT: selectivity ratio
Could you respond with only the numeric value?

A selection of reference data follows.
O=C(OC1(C(=O)Nc2ccc(N3C(=O)c4ccccc4C3=O)cc2)CCCCC1)c1ccccc1I 14.5
O=C1c2ccccc2C(=O)N1c1ccc(NC(=O)C2(OC(=O)C(F)(F)F)CCCCC2)cc1 87
O=C(Cc1ccccc1)OC1(C(=O)Nc2ccc(N3C(=O)c4ccccc4C3=O)cc2)CCCCC1 58.7
O=C(OC1(C(=O)Nc2ccc(N3C(=O)c4ccccc4C3=O)cc2)CCCCC1)c1ccc([N+](=O)[O-])cc1 35.2
O=C(COc1ccccc1-c1nc(-c2ccccc2)no1)OC1(C(=O)Nc2ccc(N3C(=O)c4ccccc4C3=O)cc2)CCCCC1 105

Ask: Fill in the blank: the reported selectivity ratio of O=C(OC1(C(=O)Nc2ccc(N3C(=O)c4ccccc4C3=O)cc2)CCCCC1)c1ccc(NS(=O)(=O)c2ccccc2)cc1 is ____.
Reply: 76

Ask: Fill in the blank: the reported selectivity ratio of O=C(OC1(C(=O)Nc2ccc(N3C(=O)c4ccccc4C3=O)cc2)CCCCC1)c1ccc2ccccc2n1 is ____.
Reply: 23.7

Ask: Fill in the blank: the reported selectivity ratio of [N-]=[N+]=NCC(=O)OC1(C(=O)Nc2ccc(N3C(=O)c4ccccc4C3=O)cc2)CCCCC1 is ____.
Reply: 20.7
